Test system: SK-MEL-5 melanoma
experiment summary: NCI-60 one-dose screen, 48 h (100 = growth as untreated, 0 = no growth, -100 = all killed)
condition: 10 µM
Method: Growth inhibition of the SK-MEL-5 human tumor cell line is measured as a screen for anti-cancer activity. Cells are grown in 96 well plates and exposed to the test compound for 48 hours. Compounds are tested at a single concentration, which is 10^-5 M for most compounds. The reported endpoint is percent growth (GI% or GIPRCNT), where numbers from 0 - 100% represent growth inhibition, and numbers from -100% - 0 represent cell death. For example, a value of 40 represents 60% growth inhibition. […]
The panel holds about 83,000 compounds, 20% with a hit somewhere; the sample as a whole holds those more often.
Please note: t applies when growth is 50% or greater, and f applies otherwise.

COc1cc(/C=C\c2cc(OC)c(OC)c(OC)c2)cc(NS(=O)(=O)c2ccc(Cl)cc2)c1OC    f

Task item: growth >= 50% for CCCCOC(=O)Oc1ccc(C(=O)Oc2ccc(OCC)cc2)cc1 ?
Reply: t

Task item: growth >= 50% for CC(=O)C1CCC2C3CC(F)C4=CC(=O)CCC4(C)C3C(O)CC12C (stereo unspecified) ?
Reply: t

Task item: growth >= 50% for COc1ccc(N=C2C(=Nc3ccc(OC)cc3)N(c3ccc(N(C)C)cc3)C(=S)N2c2ccc(OC)cc2)cc1 ?
Reply: t

Task item: growth >= 50% for CC(=O)n1c(-c2ccc(Cl)c(Cl)c2)cn(-c2ccc(Cl)cc2)c1=O ?
Reply: f

Task item: growth >= 50% for Cc1cc(=O)[nH]c(N/N=C/c2ccccc2O)n1 ?
Reply: t

Task item: growth >= 50% for CCN(CC)CCSCCN(CC)CC ?
Reply: t

Task item: growth >= 50% for CC(C)N(CCNc1nc(C(Cl)(Cl)Cl)nc2cc(Cl)ccc12)C(C)C ?
Reply: f

Task item: growth >= 50% for N#CC1=C(Nc2ccccc2Cl)SC(c2ccccc2O)NC1=O (stereo unspecified) ?
Reply: t

Task item: growth >= 50% for Nc1ccc2c(c1)Cc1cc(N)c(Br)cc1-2 ?
Reply: t

Task item: growth >= 50% for O=C1/C(=C\c2ccc(Cl)cc2)CN(C(=O)c2ccccc2)C/C1=C\c1ccc(Cl)cc1 ?
Reply: t

Task item: growth >= 50% for COc1cc(Cl)cc(-c2nn(-c3cccc(NC(=O)Nc4ccc(Cl)c(Cl)c4)c3)cc2-c2ccncc2)c1 ?
Reply: f

Task item: growth >= 50% for COc1ccccc1CNCCCN1C(=O)c2ccc3c4c(ccc(c24)C1=O)C(=O)N(CCCN)C3=O ?
Reply: f

Task item: growth >= 50% for CCOC(=O)N1C/C(=C/c2ccc(OC)cc2)C(=O)/C(=C/c2ccc(OC)cc2)C1 ?
Reply: f

Task item: growth >= 50% for O=C(Nc1nc2ccccc2s1)Nc1ccc([N+](=O)[O-])cc1Cl ?
Reply: t

* * *

Test system: TK-10 renal
experiment summary: NCI-60 one-dose screen, 48 h
condition: 10 µM
This is part of a sample that, as a whole, favours compounds with a hit. Of some 83,000 tested, about 20% had one in any assay. The source made the active and inactive calls. Rule for the calls: active = growth percent below 10; inactive = the rest.
# output must be one of YES = active, NO = inactive

Field: example entries. Status: answers known.
CN(C)CC(O)c1ccc2cc(Br)c3ccccc3c2c1 (stereo not drawn)    NO
CC(C)=CCc1ccc(O)c(=O)cc1C(C)C    NO
O=C1/C(=C\c2ccccc2)CN(C(=O)c2ccccc2F)C/C1=C\c1ccccc1    NO
O=C(CCCCC(=O)Nc1ccc2c(c1)/C(=C/c1ccc[nH]1)C(=O)N2)NO    NO
CN(C)c1ccc(N=C2C=CC(=O)c3ccccc32)cc1    NO

Task item: // outcome(item) with item = CC1CN(Cc2ccccc2)C(=O)NC1=O (stereo not drawn)
Reply: NO

Task item: // outcome(item) with item = C/C(N)=C(\C#N)C(=O)c1ccccc1
Reply: NO

Task item: // outcome(item) with item = O=C(Nc1ccncc1)C(=O)c1cn(S(=O)(=O)c2cc(Cl)cc(Cl)c2)c2ccccc12
Reply: NO
